Test system: MT-4 cells
measurement_notes: Cytotoxicity in mock-infected MT-4 cells, MTT assay
Format: cell-based
test_conditions: 50% reduction of viability of mock-infected MT-4 cells
Listed below: CC50 values for each entry.
Dear colleague, please return just the value in µM, with no unit written.

Solved entries (count: 6):
COc1ccc(N(C)C(=O)[C@H](Cc2ccccc2)NC(=O)CN2CCN(C(=O)Cc3c[nH]c4ccc(Br)cc34)CC2=O)cc1    16.4
COc1ccc(N(C)C(=O)[C@H](Cc2ccccc2)NC(=O)CN2CCN(C(=O)Cc3c(C)[nH]c4ccccc34)CC2=O)cc1    108
COc1ccc(N(C)C(=O)[C@H](Cc2ccccc2)NC(=O)CN2CCN(C(=O)Cc3c[nH]c4ccccc34)CC2=O)cc1    112
COc1ccc(N(C)C(=O)[C@H](Cc2cc(F)cc(F)c2)NC(=O)CN2CCN(C(=O)Cc3c[nH]c4ccc(OC)cc34)CC2=O)cc1    15.9
COc1ccc(N(C)C(=O)[C@H](Cc2ccccc2)NC(=O)CN2CCN(C(=O)Cc3c[nH]c4ccc(F)cc34)CC2=O)cc1    90.1
COc1ccc(N(C)C(=O)[C@H](Cc2cc(F)cc(F)c2)NC(=O)CN2CCN(C(=O)Cc3c[nH]c4ccc(Br)cc34)CC2=O)cc1    3.15

For the next question, use this compound.
Documented CC50 of COc1ccc(N(C)C(=O)[C@H](Cc2cc(F)cc(F)c2)NC(=O)CN2CCN(C(=O)Cc3c[nH]c4ccc(O)cc34)CC2=O)cc1 : 132

====

measurement_notes: in vitro
test_conditions: human, microsomes
recorded_endpoint: microsomal CLint at 1 μM (µL/min/mg)
Dear colleague, please return just the value in µL/min/mg, with no unit written.

Documented microsomal CLint at 1 μM of COc1ccc(N(C)C(=O)[C@H](Cc2cc(F)cc(F)c2)NC(=O)CN2CCN(C(=O)Cc3c[nH]c4ccc(F)cc34)CC2=O)cc1 : 2760

====

Tested on: HIV-1 (IIIB)
measurement_notes: microbe, parasite or virus in culture
Type: cell-based
test_conditions: Human immunodeficiency virus 1, MT4, 50% protection against HIV-induced cytotoxicity, MT-4 cells, MTT
recorded_endpoint: pEC50
pEC50 (log units): -log10 of the concentration in mol/L.

Solved entries (count: 3):
COc1ccc(N(C)C(=O)[C@H](Cc2cc(F)cc(F)c2)NC(=O)CN2CCN(C(=O)Cc3c(C)[nH]c4ccccc34)CC2=O)cc1    4.68
COc1ccc(N(C)C(=O)[C@H](Cc2cc(F)cc(F)c2)NC(=O)CN2CCN(C(=O)c3ccc(NC(=O)C4CC4)cc3)CC2=O)cc1    4.84
COc1ccc(N(C)C(=O)[C@H](Cc2cc(F)cc(F)c2)NC(=O)CN2CCN(C(=O)c3ccc(NS(C)(=O)=O)cc3)CC2=O)cc1    3.79

Documented pEC50 of COc1ccc(N(C)C(=O)[C@H](Cc2cc(F)cc(F)c2)NC(=O)CN2CCN(C(=O)Cc3c[nH]c4ccccc34)CC2=O)cc1 : 4.53

Documented pEC50 of COc1ccc(N(C)C(=O)[C@H](Cc2ccccc2)NC(=O)CN2CCN(C(=O)Cc3c(C)[nH]c4ccccc34)CC2=O)cc1 : 4.85

====

System: HIV-1 (IIIB)
measurement_notes: microbe, parasite or virus in culture
Type: cell-based
test_conditions: Human immunodeficiency virus 1, MT4, 50% protection against HIV-induced cytotoxicity, MT-4 cells, MTT
pEC50: −log10 of the molar value.
Listed below: pEC50 values for each entry.

Solved entries (count: 2):
COc1ccc(N(C)C(=O)[C@H](Cc2ccccc2)NC(=O)CN2CCN(C(=O)c3ccc(NC(=O)C4CC4)cc3)CC2=O)cc1 [7i]    < 3.78
COc1ccc(N(C)C(=O)[C@H](Cc2cc(F)cc(F)c2)NC(=O)CN2CCN(C(=O)Cc3c[nH]c4ccc(Br)cc34)CC2=O)cc1 [F2-7c]    < 5.50

Documented pEC50 of COc1ccc(N(C)C(=O)[C@H](Cc2cc(F)cc(F)c2)NC(=O)CN2CCN(C(=O)Cc3c[nH]c4ccc(O)cc34)CC2=O)cc1 [F2-7e] : < 3.88

====

System: HIV-2 (ROD)
measurement_notes: Anti-HIV-2 (ROD) activity in MT-4 cells, MTT assay
Assay type: cell-based
test_conditions: Human immunodeficiency virus 2, MT4, 50% protection against HIV-induced cytotoxicity
Listed below: pEC50 values for each entry.
pEC50 (log units): -log10 of the concentration in mol/L.

Solved entries (count: 3):
COc1ccc(N(C)C(=O)[C@H](Cc2cc(F)cc(F)c2)NC(=O)CN2CCN(C(=O)c3ccc(NS(C)(=O)=O)cc3)CC2=O)cc1 [F2-7h]    3.74
COc1ccc(N(C)C(=O)[C@H](Cc2ccccc2)NC(=O)CN2CCN(C(=O)c3ccc(NC(=O)C4CC4)cc3)CC2=O)cc1 [7i]    4.82
COc1ccc(N(C)C(=O)[C@H](Cc2ccccc2)NC(=O)CN2CCN(C(=O)Cc3c(C)[nH]c4ccccc34)CC2=O)cc1 [7a]    5.11

For the next question, use this compound.
Documented pEC50 of COc1ccc(N(C)C(=O)[C@H](Cc2ccccc2)NC(=O)CN2CCN(C(=O)Cc3c[nH]c4ccc(F)cc34)CC2=O)cc1 [7f] : 5.34

====

measurement_notes: in vitro
test_conditions: both, human, plasma
recorded_endpoint: remaining at 0 h, 2 μM (%)
Dear colleague, please return just the value in %, with no unit written.

Solved entries (count: 2):
CC(C)[N+](C)(CCOC(=O)C1c2ccccc2Oc2ccccc21)C(C)C [Propantheline bromide]    100
Cc1[nH]c2ccccc2c1CC(=O)N[C@@H](Cc1ccccc1)C(=O)N(C)c1ccccc1 [PF74]    100

Documented remaining at 0 h, 2 μM of COc1ccc(N(C)C(=O)[C@H](Cc2cc(F)cc(F)c2)NC(=O)CN2CCN(C(=O)Cc3c[nH]c4ccc(F)cc34)CC2=O)cc1 [F2-7f] : 100

====

Listed below: remaining at 0.5 h, 2 μM values for each entry.
measurement_notes: in vitro
test_conditions: both, human, plasma
Dear colleague, please return just the value in %, with no unit written.

COc1ccc(N(C)C(=O)[C@H](Cc2cc(F)cc(F)c2)NC(=O)CN2CCN(C(=O)Cc3c[nH]c4ccc(F)cc34)CC2=O)cc1 [F2-7f]    97.8

For the next question, use this compound.
Documented remaining at 0.5 h, 2 μM of CC(C)[N+](C)(CCOC(=O)C1c2ccccc2Oc2ccccc21)C(C)C [Propantheline bromide] : 19.4

====

measurement_notes: in vitro
test_conditions: both, human, plasma
Listed below: remaining at 10 min, 2 μM values for each entry.

COc1ccc(N(C)C(=O)[C@H](Cc2cc(F)cc(F)c2)NC(=O)CN2CCN(C(=O)Cc3c[nH]c4ccc(F)cc34)CC2=O)cc1 [F2-7f]    98%

Documented remaining at 10 min, 2 μM of CC(C)[N+](C)(CCOC(=O)C1c2ccccc2Oc2ccccc21)C(C)C [Propantheline bromide] : 56.5%

====

Listed below: CC50 at 5 days values for each entry.
measurement_notes: Cytotoxicity in mock-infected MT-4 cells, MTT assay
Type: cell-based
test_conditions: human, 50% reduction of viability of mock-infected MT-4 cells

Solved entries (count: 4):
COc1ccc(N(C)C(=O)[C@H](Cc2ccccc2)NC(=O)CN2CCN(C(=O)c3ccc(NC(=O)C(F)(F)F)cc3)CC2=O)cc1    > 195 µM
COc1ccc(N(C)C(=O)[C@H](Cc2ccccc2)NC(=O)CN2CCN(C(=O)c3ccc(NS(C)(=O)=O)cc3)CC2=O)cc1    > 201 µM
COc1ccc(N(C)C(=O)[C@H](Cc2ccccc2)NC(=O)CN2CCN(C(=O)Cc3c[nH]c4ccc(O)cc34)CC2=O)cc1    > 209 µM
COc1ccc(N(C)C(=O)[C@H](Cc2cc(F)cc(F)c2)NC(=O)CN2CCN(C(=O)c3ccc(NS(C)(=O)=O)cc3)CC2=O)cc1    > 190 µM

For the next question, use this molecule.
Documented CC50 at 5 days of COc1ccc(N(C)C(=O)[C@H](Cc2ccccc2)NC(=O)CN2CCN(C(=O)c3ccc(NC(C)=O)cc3)CC2=O)cc1 : > 213 µM

====

System: HIV-2 (ROD)
measurement_notes: Anti-HIV-2 (ROD) activity in MT-4 cells, MTT assay
Assay type: cell-based
test_conditions: Human immunodeficiency virus 2, MT4, 50% protection against HIV-induced cytotoxicity
recorded_endpoint: pEC50
pEC50 (log units): -log10 of the concentration in mol/L.

COc1ccc(N(C)C(=O)[C@H](Cc2cc(F)cc(F)c2)NC(=O)CN2CCN(C(=O)Cc3c[nH]c4ccc(F)cc34)CC2=O)cc1 [F2-7f]    5.29

For the next question, use this compound.
Tested on HIV-2 (ROD), the item COc1ccc(N(C)C(=O)[C@H](Cc2cc(F)cc(F)c2)NC(=O)CN2CCN(C(=O)c3ccc(NC(C)=O)cc3)CC2=O)cc1 [F2-7g] showed pEC50 equal to 3.72
